target: Protein artemis (Homo sapiens); experiment: IC50 of Artemis nuclease activity blockers – biochemical, fluorescence intensity, dose response (AID 720701)
Sequence (Q96SD1 whole entry): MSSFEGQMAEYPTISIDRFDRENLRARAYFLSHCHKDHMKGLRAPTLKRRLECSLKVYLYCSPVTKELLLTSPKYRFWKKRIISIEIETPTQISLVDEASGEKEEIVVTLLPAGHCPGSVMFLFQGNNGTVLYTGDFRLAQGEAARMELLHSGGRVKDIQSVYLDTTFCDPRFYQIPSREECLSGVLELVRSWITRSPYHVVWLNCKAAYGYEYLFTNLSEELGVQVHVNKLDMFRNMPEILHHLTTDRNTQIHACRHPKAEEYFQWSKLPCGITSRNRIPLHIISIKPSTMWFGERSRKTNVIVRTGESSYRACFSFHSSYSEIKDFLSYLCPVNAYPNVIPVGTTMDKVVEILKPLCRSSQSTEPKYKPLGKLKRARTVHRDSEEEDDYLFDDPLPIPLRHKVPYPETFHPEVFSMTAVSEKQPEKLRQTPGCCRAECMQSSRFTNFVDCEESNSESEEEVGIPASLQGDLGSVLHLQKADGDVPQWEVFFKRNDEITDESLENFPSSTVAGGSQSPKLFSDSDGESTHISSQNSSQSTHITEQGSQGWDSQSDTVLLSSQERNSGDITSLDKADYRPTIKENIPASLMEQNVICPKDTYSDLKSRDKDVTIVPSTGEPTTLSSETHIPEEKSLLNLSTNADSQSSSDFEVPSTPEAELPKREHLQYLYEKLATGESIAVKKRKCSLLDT
Observation Type: pIC50
Note: pIC50 values are expressed as the negative base-10 logarithm of concentration in M.

Query: What value of pIC50 has been recorded for this entry: NS(=O)(=O)c1ccc2c(c1)C1C=CCC1C(C1CC=CCC1)N2 (stereo not given)
Response: 5.02

Query: pIC50 lookup needed for N#CC(C(=O)NCc1ccccc1)c1nc2ccccc2nc1N1CCCC1 (stereo not given) , thanks.
Response: 5.30

Query: I am curious: what pIC50 value has been reported for `O=c1c2ccccc2nc(N=NCc2c(O)ccc3ccccc23)n1O` ?
Response: 5.33

Query: Which pIC50 value is on record for `COc1ccc(Nc2nc(N=NCc3ccccc3)nc(NCc3ccco3)n2)cc1` ?
Response: 5.58

Query: Field request: pIC50 | item: `Cc1cccc(CN2C(=O)N/C(=C/c3ccc(C)s3)C2=O)c1`
Response: 4.79

Query: Item under review: CC(N=O)c1ccccc1C(=O)O (stereo not given) . Reported pIC50?
Response: 5.44

Hello, the source for this data is BindingDB's records for doi:10.7270/Q2MC8XP5, in case you need it.
